Parameter: self-cleavage. Scope: all listed entries.
B1: HDV Ribozyme (parent)
chain: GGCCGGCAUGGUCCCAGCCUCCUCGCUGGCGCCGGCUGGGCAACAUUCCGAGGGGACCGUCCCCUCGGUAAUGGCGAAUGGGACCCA

# Variants of: B1
# Assay Comment: self-cleavage, relative activity (ratio to wild type); higher = more cleavage; co-transcriptional
Give your answer as a number; write no unit.

Completed entries (count: 5):
{"columns": ["Variant Identifier", "Reported Property", "Experimental Value"],
 "data": [
  ["C14A U47G", "self-cleavage", 0.519],
  ["C21G G35U", "self-cleavage", 0.104],
  ["G11U C85U", "self-cleavage", 0.767],
  ["C21A G59C", "self-cleavage", 0.116],
  ["C18G C33A", "self-cleavage", 0]
]}

Suppose we examine the variant A43U U60A ; what self-cleavage value has been reported? 0.594

Suppose we examine the variant U23G G80A ; what self-cleavage value has been reported? 0.134

Suppose we examine the variant C7U A70C ; what self-cleavage value has been reported? 0.923

Suppose we examine the variant G38U G74U ; what self-cleavage value has been reported? 0.14

Suppose we examine the variant G53U G55U ; what self-cleavage value has been reported? 0.915
